Sourced from paper PMC4714869

# assayed-target: human ERβ (Homo sapiens)
# Sequence (Q92731 whole entry): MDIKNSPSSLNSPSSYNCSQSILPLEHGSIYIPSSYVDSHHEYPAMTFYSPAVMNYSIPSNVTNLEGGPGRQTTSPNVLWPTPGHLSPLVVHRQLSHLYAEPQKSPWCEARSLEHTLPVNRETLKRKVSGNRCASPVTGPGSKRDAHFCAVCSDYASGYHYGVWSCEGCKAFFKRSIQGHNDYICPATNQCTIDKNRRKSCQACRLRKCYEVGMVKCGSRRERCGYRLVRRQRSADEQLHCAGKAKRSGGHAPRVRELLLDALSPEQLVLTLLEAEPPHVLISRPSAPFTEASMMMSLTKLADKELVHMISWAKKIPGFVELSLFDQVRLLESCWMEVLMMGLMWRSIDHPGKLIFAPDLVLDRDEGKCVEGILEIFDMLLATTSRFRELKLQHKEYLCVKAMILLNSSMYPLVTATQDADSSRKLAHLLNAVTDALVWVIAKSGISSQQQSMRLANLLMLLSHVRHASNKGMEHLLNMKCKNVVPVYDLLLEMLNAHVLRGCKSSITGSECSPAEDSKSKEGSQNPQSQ
quantity-name: ERβ/ERα ratio of RBA
# answer = number (no unit)

The cases that follow already have their ERβ/ERα ratio of RBA on record.
(Q) Lab note: record ERβ/ERα ratio of RBA of COc1c(CC=C(C)C)c(O)cc(O)c1-c1coc2cc(O)ccc2c1=O [L7, Glicoricone] tested on human ERβ (Homo sapiens).
(A) 2.4

(Q) Lab note: record ERβ/ERα ratio of RBA of CC1(C)C=Cc2c(ccc3c2OC[C@@H](c2ccc(O)cc2O)C3)O1 [L1, Glabridin] tested on human ERβ (Homo sapiens).
(A) 1.2

// next entry
(Q) Lab note: record ERβ/ERα ratio of RBA of COc1c(CC=C(C)C)c(O)cc2c1C[C@H](c1ccc(O)cc1O)CO2 [L5, Glyasperin C] tested on human ERβ (Homo sapiens).
(A) 11.1

----------
# assayed-target: human ERβ (Homo sapiens)
# test-context: RBA of estradiol set to 100%; 2 nM [3H]-estradiol, 18–24 h at 0 °C
Classify by measured RBA (mean ± SD) ERβ: YES if it is equal to or exceeds 0.04%, NO if it is smaller.

Known results for compounds:
(Q) Does "COc1c(CC=C(C)C)c(O)cc(O)c1-c1coc2cc(O)ccc2c1=O" have a reported RBA (mean ± SD) ERβ of at least 0.04%?
(A) NO

(Q) Does "COc1ccc(-c2coc3cc(O)ccc3c2=O)cc1O" have a reported RBA (mean ± SD) ERβ of at least 0.04%?
(A) NO

(Q) Does "CC1(C)C=Cc2c(ccc3c2OC[C@@H](c2ccc(O)cc2O)C3)O1" have a reported RBA (mean ± SD) ERβ of at least 0.04%?
(A) YES

--- query ---
(Q) Does "COc1c(CC=C(C)C)c(O)cc2c1C[C@H](c1ccc(O)cc1O)CO2" have a reported RBA (mean ± SD) ERβ of at least 0.04%?
(A) YES

----------
Here we list compounds with their recorded ERβ/ERα ratio of RBA when tested on human ERβ (Homo sapiens).
# answer = number (no unit)

(Q) Lab note: record ERβ/ERα ratio of RBA of "COc1ccc(-c2coc3cc(O)ccc3c2=O)cc1O" tested on human ERβ (Homo sapiens).
(A) 2.7

(Q) Lab note: record ERβ/ERα ratio of RBA of COc1ccc(C2COc3cc(O)ccc3C2)c(O)c1 (stereo not drawn) tested on human ERβ (Homo sapiens).
(A) 0.6

// next entry
(Q) Lab note: record ERβ/ERα ratio of RBA of "COc1c(CC=C(C)C)c(O)cc2oc(=O)c(-c3ccc(O)cc3O)cc12" tested on human ERβ (Homo sapiens).
(A) 2.4
